Collected Recovery of Ammonium Nitrogen values appear next to each entry.
# Tested on: Nitrosomonas spp.
# experimental-protocol: Nitrification of ammonium in soil incubated at 25° C. (ammonium recovery, nitrate accumulation)
# settings: 0.25 ppm; week 9; soil 25° C.; 200 ppm N
Counter-ions that a name gives are not always drawn.
Numbers only here, please. The scale is PPM.

Example entries and their recorded answers appear below.
CC[C@@]1([C@@H]2O[C@@H]([C@H]3O[C@@](O)(CO)[C@H](C)C[C@@H]3C)C[C@@H]2C)CC[C@H]([C@]2(C)CC[C@]3(C[C@H](O)[C@@H](C)[C@@H]([C@@H](C)[C@@H](OC)[C@H](C)C(=O)O)O3)O2)O1 [Monensin sodium salt, Monensin]: 157
CC[C@@H](C(=O)[C@@H](C)[C@@H](O)[C@H](C)CCc1ccc(C)c(O)c1C(=O)O)[C@H]1O[C@](CC)([C@H]2CC[C@](O)(CC)[C@H](C)O2)C[C@@H]1C [Lasalocid sodium salt, Lasalocid]: 147
CO[C@@H]1[C@@H](OC)[C@H](C)[C@@](O)(CC(=O)O)O[C@H]1[C@H](C)[C@H]1O[C@@]2(CC[C@@](C)([C@H]3CC[C@@](C)([C@@H]4O[C@@H]([C@H]5O[C@](C)(O)[C@H](C)C[C@@H]5C)C[C@@H]4O[C@@H]4C[C@H](OC)[C@@H](OC)[C@H](C)O4)O3)O2)C[C@H](O)[C@H]1C [Maduramicin monoammonium salt, Maduramicin]: 185

# next molecule below
Recorded Recovery of Ammonium Nitrogen (molecule CC[C@@H](C(=O)[C@@H](C)[C@@H](O)[C@H](C)[C@@H]1O[C@@H]([C@@H](CC)C(=O)O)CC[C@@H]1C)[C@H]1O[C@]2(C=C[C@@H](O)[C@]3(CC[C@@](C)([C@H]4CC[C@](O)(CC)[C@H](C)O4)O3)O2)[C@H](C)C[C@@H]1C [Salinomycin monosodium salt, Salinomycin] ): 171

====

Each record here notes measured Recovery of Ammonium Nitrogen.
# System: Nitrosomonas spp.
# experimental-protocol: Nitrification of ammonium in soil incubated at 25° C. (ammonium recovery, nitrate accumulation)
# settings: 0.50 ppm; week 20; soil 25° C.; 200 ppm N
Structures can show the parent of a compound that is named as a salt.
Record the value in PPM, omitting the unit from your answer.

Take a look at these entries with their results.
Clc1cccc(C(Cl)(Cl)Cl)n1 [Nitrapyrin]: 25
CC[C@@]1([C@@H]2O[C@@H]([C@H]3O[C@@](O)(CO)[C@H](C)C[C@@H]3C)C[C@@H]2C)CC[C@H]([C@]2(C)CC[C@]3(C[C@H](O)[C@@H](C)[C@@H]([C@@H](C)[C@@H](OC)[C@H](C)C(=O)O)O3)O2)O1 [Monensin sodium salt, Monensin]: 143
CC[C@@H](C(=O)[C@@H](C)[C@@H](O)[C@H](C)CCc1ccc(C)c(O)c1C(=O)O)[C@H]1O[C@](CC)([C@H]2CC[C@](O)(CC)[C@H](C)O2)C[C@@H]1C [Lasalocid sodium salt, Lasalocid]: 135
CO[C@@H]1[C@@H](OC)[C@H](C)[C@@](O)(CC(=O)O)O[C@H]1[C@H](C)[C@H]1O[C@@]2(CC[C@@](C)([C@H]3CC[C@@](C)([C@@H]4O[C@@H]([C@H]5O[C@](C)(O)[C@H](C)C[C@@H]5C)C[C@@H]4O[C@@H]4C[C@H](OC)[C@@H](OC)[C@H](C)O4)O3)O2)C[C@H](O)[C@H]1C [Maduramicin monoammonium salt, Maduramicin]: 175

Okay, now this compound:
The value of Recovery of Ammonium Nitrogen measured for the compound CC[C@@H](C(=O)[C@@H](C)[C@@H](O)[C@H](C)[C@@H]1O[C@@H]([C@@H](CC)C(=O)O)CC[C@@H]1C)[C@H]1O[C@]2(C=C[C@@H](O)[C@]3(CC[C@@](C)([C@H]4CC[C@](O)(CC)[C@H](C)O4)O3)O2)[C@H](C)C[C@@H]1C [Salinomycin monosodium salt, Salinomycin] turned out to be 176

Origin of the recorded values: patent US4746349A
